In this section we review reported IC50 values for a set of compounds.
- TARGET_UNDER_TEST: Human recombinant MAGL (Homo sapiens, UniProt Q99685)
- Construct: purchased Cayman Chemical
- Sequence (Q99685 1-303): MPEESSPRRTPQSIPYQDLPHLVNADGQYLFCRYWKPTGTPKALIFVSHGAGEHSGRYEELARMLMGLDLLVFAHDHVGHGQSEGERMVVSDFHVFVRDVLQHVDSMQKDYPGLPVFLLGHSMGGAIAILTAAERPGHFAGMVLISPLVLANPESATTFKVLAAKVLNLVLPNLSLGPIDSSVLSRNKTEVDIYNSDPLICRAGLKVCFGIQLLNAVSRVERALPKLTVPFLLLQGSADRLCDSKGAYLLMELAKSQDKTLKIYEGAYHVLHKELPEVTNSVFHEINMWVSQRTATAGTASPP
- TEST_NAME: MAGL inhibition assay (4-NPA substrate, absorbance at 405 nm)
- Type: biochemical
- DETAILS: 30 min reaction, no DTT; read-out: MAGL inhibition IC50
MEASUREMENT_TYPE: IC50 (µM)

In [3]: df
Out[3]:
                                 mol_smiles  measurement_type  unit_label  measured_result
0  O=C(c1ccc(-c2ccccc2)cc1)N1CCN(c2cccc(Cl)c2)CC1              IC50          µM             23.3
1  O=C(c1ccc(-c2cccc3ccc(O)cc23)cc1)N1CCN(c2cccc(Cl)c2)CC1              IC50          µM              6.1
2  O=C(c1ccc(-c2ccccc2)cc1)N1CCN(c2cccc3ccc(O)cc23)CC1              IC50          µM             31.9

Measured values drawn from paper PMC6352951 for this set.
